# target-of-assay: T1, Full length IDOL (1–445), Q8WY64
# T1 chain: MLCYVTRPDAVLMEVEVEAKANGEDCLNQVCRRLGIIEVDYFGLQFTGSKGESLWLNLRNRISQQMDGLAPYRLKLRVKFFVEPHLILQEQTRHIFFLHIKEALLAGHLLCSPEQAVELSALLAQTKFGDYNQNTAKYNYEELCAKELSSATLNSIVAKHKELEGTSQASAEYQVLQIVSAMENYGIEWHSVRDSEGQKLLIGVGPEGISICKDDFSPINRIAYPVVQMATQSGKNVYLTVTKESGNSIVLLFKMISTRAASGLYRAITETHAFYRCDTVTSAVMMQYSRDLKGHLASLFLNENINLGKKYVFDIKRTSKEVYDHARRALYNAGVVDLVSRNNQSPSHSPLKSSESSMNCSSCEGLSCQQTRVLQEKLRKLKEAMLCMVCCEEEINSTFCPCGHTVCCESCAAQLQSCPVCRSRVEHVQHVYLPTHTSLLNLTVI
# assay-overview: MST
# recorded-conditions: modification not given; NT-647-NHS dye (only the labelled copy in the MST assays)
pKd: −log10 of the molar value. Non-standard residues stand in square brackets, D forms with d. Phe(4-NO2) = N[C@@H](Cc1ccc([N+](=O)[O-])cc1)C(=O)O; Phe(4-CN) = N#Cc1ccc(C[C@H](N)C(=O)O)cc1; Phe(4-Cl) = N[C@@H](Cc1ccc(Cl)cc1)C(=O)O; Phe(4-F) = N[C@@H](Cc1ccc(F)cc1)C(=O)O; hPhe = N[C@@H](CCc1ccccc1)C(=O)O
measure: pKd

[
  {
    "binder": "cyclo(CF[Phe(4-CN)]LYT) (not fully specified) [RINGPep1 derivative with 4-cyano-phenylalanine at position 3]",
    "measure": "pKd",
    "value-observed": 4.44
  },
  {
    "binder": "cyclo(CF[Phe(4-F)]LYT) (not fully specified) [RINGPep1 derivative with 4-fluoro-phenylalanine at position 3]",
    "measure": "pKd",
    "value-observed": 4.45
  },
  {
    "binder": "cyclo(CF[Phe(4-NO2)]LYT) (not fully specified) [RINGPep1 derivative with 4-nitro-phenylalanine at position 3]",
    "measure": "pKd",
    "value-observed": 4.45
  }
]

I: cyclo(CF[Phe(4-Cl)]LYT) (not fully specified) [RINGPep1 derivative with 4-chloro-phenylalanine at position 3]
II: cyclo(CF[hPhe]LYT) (not fully specified) [RINGPep1 derivative with homo-phenylalanine at position 3]
IN: Parameter check: reported pKd is higher for which label, I or II ? Refer to your chosen entry by its label in the reply.
OUT: I
